For each record, write down the corresponding TGI.
Tested on: K-562 leukemia
assay: NCI tumour cell line growth inhibition, 48 h

// solved cases for TGI follow
{"columns": ["compound", "test.readout", "experimental.result"],
 "data": [
  ["COC(=O)Cc1nc2ccccc2o1", "TGI", "> 100 µM"],
  ["CCCCCCCCCCSCC(CO)NC(=O)/C=C/c1c(C)[nH]c(=O)[nH]c1=O (stereo not given)", "TGI", "> 50 µM"],
  ["COc1ccc(C2C(Cl)C(=O)N2NC(=O)Cc2ccccc2)cc1OC (stereo not given)", "TGI", "> 100 µM"],
  ["CCOC(=O)/C(C#N)=C/Nc1ccc(-c2nc3ccccc3[nH]2)cc1", "TGI", "98.6 µM"],
  ["COc1ccc(C(=O)O/N=C2/CCC/C2=C\\c2ccccc2)cc1", "TGI", "> 100 µM"]
]}

Dear reader, for each entry below, please note its TGI.
1. CCOC(=O)c1ccccc1-c1c2ccc(=[N+](C)C)cc-2oc2cc(N(C)C)ccc12
2. O=C(CCl)Nc1cc(O)c2c(c1)C(=O)c1cccc(O)c1C2=O
3. C=CCC(SC)C1=C(C)C(=O)c2ccccc21 (stereo not given)
4. Cc1ccc2c(c1)C(=O)c1c-2n(CCCN=[N+]=[N-])c(=O)c2cc([N+](=O)[O-])ccc12
5. CCC1(O)CC(OC2CC(N(C)C)C(OC3CC(O)C(OC4CCC(=O)C(C)O4)C(C)O3)C(C)O2)c2c(O)c3c(c(O)c2C1C(=O)OC)C(=O)c1cccc(O)c1C3=O (stereo not given)

stdout:
1: > 35.1 µM; 2: 4.22 µM; 3: > 10 µM; 4: > 100 µM; 5: 0.0125 µM

* * *

Test system: OVCAR-3 ovarian
assay: NCI tumour cell line growth inhibition, 48 h
test.readout: TGI

Examples with their reported TGI follow.
{"columns": ["compound", "target.system", "TGI"],
 "data": [
  ["Nc1nc(N)c(-c2ccccc2)c(CCC(=O)Nc2ccc(Cl)cc2)n1", "OVCAR-3 ovarian", "> 100 µM"],
  ["c1ccc(C2[C@@H]3CCCc4ccccc4C3=NN2c2ccccc2)cc1 (stereo not given in full)", "OVCAR-3 ovarian", "> 100 µM"],
  ["Cn1cc(NC(=O)c2cc(NC(=O)CCCCCCC(=O)Nc3cc(C(=O)Nc4cc(C(=O)NCCC(=N)N)n(C)c4)n(C)c3)cn2C)cc1C(=O)NCCC(=N)N", "OVCAR-3 ovarian", "50.6 µM"],
  ["COC(=O)C1CC(C(=O)OC)c2nc3cc(C)c(C)cc3nc21 (stereo not given)", "OVCAR-3 ovarian", "> 100 µM"]
]}

Now take the following compound into account.
Assay OVCAR-3 ovarian, sample CN(C)CC1CCCC/C1=N/OC(=O)c1ccc(Cl)c(Cl)c1 (stereo not given) , TGI read: > 100 µM

* * *

Please provide measured TGI for the entries that follow.
Test system: K-562 leukemia
assay: NCI tumour cell line growth inhibition, 48 h

{"columns": ["molecule", "TGI"],
 "data": [
  ["COC(=O)C1C2CC3C(OC(=O)C31)C2OC(=O)[C@](OC)(c1ccccc1)C(F)(F)F (stereo not given in full)", "> 100 µM"]
]}

Need TGI for each of these molecules.
1. CN(CCO)/N=N/c1[nH]ncc1C(N)=O
2. O=S(=O)(O)ONC1=NCCN1
3. CN(C)CCn1nc(N)c2nc3cc(C(F)(F)F)ccc3nc21
4. CC1(C)CC[C@]2(C(=O)O)[C@H](O)C[C@]3(C)C(=CC[C@@H]4[C@@]5(C)CC[C@H](OC6OC(C(=O)O)C(O)C(O)C6O)C(C)(C)[C@@H]5CC[C@]43C)[C@@H]2C1 (stereo not given in full)
5. Cc1cccc(NC2=NCCO2)c1Cl
6. Cc1ccc2c(=O)c(-c3n[nH]c(=S)s3)c[nH]c2n1
7. CC1CN=C(c2ccc(COc3ccc(C4=NCC(C)N4)cc3)cc2)N1 (stereo not given)

stdout:
1: > 100 µM; 2: > 100 µM; 3: > 100 µM; 4: > 100 µM; 5: > 100 µM; 6: > 100 µM; 7: > 100 µM

Give TGI for all molecules that follow.
1. N#C/C(=C\c1ccccc1Br)C(=O)c1ccccc1
2. COc1cc(C2c3cc4c(cc3[C@@H](Nc3ccc(N)cc3)C3COC(=O)[C@H]23)OCO4)cc(OC)c1O (stereo not given in full)

stdout:
> 42.6 µM
46.3 µM

* * *

Tested on: HT29 colon
assay: NCI tumour cell line growth inhibition, 48 h
Give TGI for every item shown.

{"columns": ["compound", "TGI"],
 "data": [
  ["CCOC(=O)Cc1csc(NC(=O)COC(=O)c2ccc(OC)cc2)n1", "> 80.1 µM"],
  ["CCc1nc(-n2c(-c3ccccc3)nc3ccccc3c2=O)nc(N)c1-c1ccc(Cl)cc1", "> 100 µM"],
  ["CCCCNC(=S)Nc1nc(C(=O)NNC(=O)c2ccccc2)cs1", "> 100 µM"],
  ["CO[C@H](C(=O)O)[C@@H]1Cc2cc3cc(OC4CC(OC5CC(O)C(O)C(C)O5)C(O)C(C)O4)c(C)c(O)c3c(O)c2C(=O)[C@H]1OC1CC(OC2CC(OC3CC(C)(O)C(O)C(C)O3)C(O)C(C)O2)C(O)C(C)O1 (some centres not stated)", "> 32.5 µM"]
]}

Go through the items and report each one's TGI.
1. O=C1c2cc([N+](=O)[O-])sc2C(=O)c2ccsc21
2. CC[C@H](NC(=O)[C@H](CS(=O)(=O)CC1CC1)N[C@@H](c1ccc(F)cc1)C(F)(F)F)C(=O)C(=O)NC1CC1
3. CCOC(=O)/N=c1/nc(N(C)C)ss1

stdout:
1: 1.48 µM; 2: > 100 µM; 3: > 100 µM

* * *

Test system: U251 CNS
assay: NCI tumour cell line growth inhibition, 48 h
test.readout: TGI

Check out these entries, answers already filled in.
{"columns": ["compound", "TGI"],
 "data": [
  ["COC(=O)[C@]12CC[C@@H](C)[C@H](C)[C@@H]1C1=CC[C@@H]3[C@@]4(C)CC(=O)[C@H](OC(=O)c5ccco5)[C@@]5(C)COC(=C45)C[C@@]3(C)[C@]1(C)CC2", "> 100 µM"],
  ["NC(=O)N/N=C(/c1nc2ccc([N+](=O)[O-])cc2[nH]c1=O)C(O)c1ccco1 (stereo unspecified)", "> 100 µM"],
  ["CCCC1(N)CC(OC)OC(C)C1O (stereo unspecified)", "> 100 µM"],
  ["CN(C)CCNc1nc2ccccc2c2c(=O)c3ccccc3sc12", "6.01 µM"],
  ["COc1cc([C@@H]2c3cc4c(cc3C[C@H]3COC(=O)[C@@H]32)OCO4)cc2c1OCO2", "> 100 µM"]
]}

Looking up "Nc1c(-c2nc3ccccc3[nH]2)sc(=S)n1-c1ccc(Cl)cc1" , I see its TGI listed as 53.9 µM

* * *

So I've got a bunch of compounds here, and I need their GI50 values.
Test system: SF-268 CNS
assay: NCI tumour cell line growth inhibition, 48 h

Previously resolved entries follow.
{"columns": ["smiles.structure", "experimental.result"],
 "data": [
  ["O=S(=O)(O)ONC1=NCCN1", "> 100 µM"],
  ["COc1ccc(-c2c(N)n[nH]c2-c2cc(OC)c(OC)c(OC)c2)cc1", "0.676 µM"],
  ["COC(=O)[C@]12CC[C@@H](C)[C@H](C)[C@@H]1C1=CC[C@@H]3[C@@]4(C)CC(=O)[C@H](OC(=O)c5ccco5)[C@@]5(C)COC(=C45)C[C@@]3(C)[C@]1(C)CC2", "4.86 µM"]
]}

Now take the following compound into account.
GI50 measured on "C1CC[N-]CC1.CC(=N\O)/C(C)=N/O.CC(=N\O)/C(C)=N/O.[CH2-]CCN1CCOCC1.[Co+2]" = > 100 µM

* * *

Test system: CAKI-1 renal
assay: NCI tumour cell line growth inhibition, 48 h
test.readout: TGI

Examples with answers:
{"columns": ["compound", "TGI"],
 "data": [
  ["CC(=O)CC(=O)/C=C/c1cccs1", "> 100 µM"],
  ["COc1ccc(N2C(=O)C3CC4=CC(=O)C[C@H]4[C@H]32)cc1 (stereo not given in full)", "87.6 µM"],
  ["COc1ccccc1NCC(=O)Nn1c(C)nc2ccc(S(=O)(=O)Nc3ccccc3OC)cc2c1=O", "> 100 µM"]
]}

Please go through the list and note TGI for each compound.
1. O=C1N[C@@H](COc2ccc(C=Nc3ccc(CCc4ccc(N=Cc5ccc(OC[C@@H]6COC(=O)N6)cc5)cc4)cc3)cc2)CO1
2. NS(=O)(=O)c1ccc(NC(=O)Nc2ccccc2F)cc1

stdout:
> 100 µM
> 100 µM
